Source listed as patent US11046709B2.

# Test system: MDA-MB-231
# Protocol Notes: Cell growth inhibition, 4-day proliferation assay, MDA-MB-231
# Assay type: cell-based
# Assay Context: Homo sapiens, MDA-MB-231; WST-8 assay, Table 7; read-out: Cell growth inhibition (IC50 (nM)) MDA-MB-231
Reported Metric: IC50 (nM)
Quick reminder: number only, in nM, skip the unit.

Consider the worked cases shown below.
{"Compound": "Cc1c(C#Cc2ccccn2)sc2c1C(c1ccc(Cl)cc1)=N[C@@H](CC(=O)Nc1ccc(O)cc1)c1nnc(C)n1-2 [Compound 125]", "Reported Metric": "IC50", "Measure Unit": "nM", "Result Value": 132}
{"Compound": "Cc1c(C#Cc2cnn(C)c2)sc2c1C(c1ccc(Cl)cc1)=N[C@@H](CC(C)C)c1nnc(C)n1-2 [Compound 108]", "Reported Metric": "IC50", "Measure Unit": "nM", "Result Value": 200}

# input Name the reported IC50 value associated with the compound Cc1c(C#Cc2ccccn2)sc2c1C(c1ccc(Cl)cc1)=N[C@@H](CC(=O)N1CC(F)(F)C1)c1nnc(C)n1-2 [Compound 127]
# output 47

# input Ok, now CCNC(=O)C[C@@H]1N=C(c2ccc(Cl)cc2)c2c(sc(C#Cc3cccnc3)c2C)-n2c(C)nnc21 [Compound 114]
# output 39.4

# input Ok, now Cc1nnc(C[C@@H]2N=C(c3ccc(Cl)cc3)c3c(sc(C#Cc4ccccn4)c3C)-n3c(C)nnc32)o1 [Compound 129]
# output 6

# input Ok, now Cc1nnc(C[C@@H]2N=C(c3ccc(Cl)cc3)c3c(sc(C#CC4(O)COC4)c3C)-n3c(C)nnc32)o1 [Compound 142]
# output 785

# input Ok, now Cc1nnc(C[C@@H]2N=C(c3ccc(Cl)cc3)c3c(sc(C#CC(C)(C)C)c3C)-n3c(C)nnc32)o1 [Compound 147]
# output 20.1

====

# Study Target: recombinant BRD4 BD1 (Homo sapiens)
# Construct: for recombinant BRD4 BD1 and BRD4 BD2 proteins
# Protocol Notes: Competitive fluorescence-polarization (FP) binding assay, BRD4 BD1
# Assay Context: competitive FP, Table 6; read-out: IC50 as determinined in FP assays BRD4 BD1
Reported IC50 values for the following compounds.
Quick reminder: number only, in nM, skip the unit.

Consider the worked cases shown below.
{"Molecule Smiles": "Cc1c(C#Cc2ccccn2)sc2c1C(c1ccc(Cl)cc1)=N[C@@H](CC(=O)N1CCN(C)CC1)c1nnc(C)n1-2", "IC50 [nM]": 6.9}
{"Molecule Smiles": "Cc1c(C#Cc2cccnc2)sc2c1C(c1ccc(Cl)cc1)=N[C@@H](CC(=O)N1CCNCC1)c1nnc(C)n1-2", "IC50 [nM]": 10.4}
{"Molecule Smiles": "Cc1c(C#Cc2ccccn2)sc2c1C(c1ccc(Cl)cc1)=N[C@@H](Cc1nnc(C(C)C)o1)c1nnc(C)n1-2", "IC50 [nM]": 10}
{"Molecule Smiles": "Cc1c(C#Cc2cccnc2)sc2c1C(c1ccc(Cl)cc1)=N[C@@H](CC(=O)N1CCOCC1)c1nnc(C)n1-2", "IC50 [nM]": 6.1}
{"Molecule Smiles": "Cc1c(C#Cc2ccccn2)sc2c1C(c1ccc(Cl)cc1)=N[C@@H](CC(=O)N1CCOCC1)c1nnc(C)n1-2", "IC50 [nM]": 8.7}
{"Molecule Smiles": "Cc1c(C#CC2CCOCC2)sc2c1C(c1ccc(Cl)cc1)=N[C@@H](CC(=O)N1CCC(C)(O)CC1)c1nnc(C)n1-2", "IC50 [nM]": 55.2}
{"Molecule Smiles": "Cc1c(C#Cc2ccccn2)sc2c1C(c1ccc(Cl)cc1)=N[C@@H](CC(N)=O)c1nnc(C)n1-2", "IC50 [nM]": 3.8}
{"Molecule Smiles": "Cc1c(C#CC2CCOCC2)sc2c1C(c1ccc(Cl)cc1)=N[C@@H](CC(=O)N1CCC(O)CC1)c1nnc(C)n1-2", "IC50 [nM]": 36.2}

# input Name the reported IC50 value associated with the compound Cc1c(C#Cc2ccccn2)sc2c1C(c1ccc(Cl)cc1)=N[C@@H](CC(=O)N1CCC(F)(F)CC1)c1nnc(C)n1-2
# output 22.4

# input Ok, now Cc1nnc(C[C@@H]2N=C(c3ccc(Cl)cc3)c3c(sc(C#CC4CC4)c3C)-n3c(C)nnc32)o1
# output 8.86

# input Ok, now Cc1nnc(C[C@@H]2N=C(c3ccc(Cl)cc3)c3c(sc(C#CC4CCN(C)CC4)c3C)-n3c(C)nnc32)o1
# output 31.8
